src = patent US20240366589A1

Test system: phosphorus and calcium levels in the urine of rats
experiment_summary: Urinary excretion of phosphate and calcium in rats (16 h overnight urine)
Format: in vivo, rat
recorded_conditions: rats, oral gavage, dose 10 mg/kg, 16 h post-dose
Urine P % of control by entry:
Give the quantity in %, number only.

1) O=C(NCCCCNC(=O)NCCOCCOCCNS(=O)(=O)c1ccc(O[C@H]2c3cc(Cl)cc(F)c3C[C@@H]2N2CCCCC2)cc1)NCCOCCOCCNS(=O)(=O)c1ccc(O[C@H]2c3cc(Cl)cc(F)c3C[C@@H]2N2CCCCC2)cc1 = 77

API: the following record is the query input.
Notebook: `C/C(=C\c1cc(F)c(Oc2ccc(S(=O)(=O)NCCOCCOCCOCCNC(=O)CN(CCN(CC(=O)O)CC(=O)NCCOCCOCCOCCNS(=O)(=O)c3ccc(Oc4c(F)cc(/C=C(\C)C(=O)N=C(N)N)cc4F)cc3)CC(=O)O)cc2)c(F)c1)C(=O)N=C(N)N` , Urine P % of control read as 91
